solubility (mole fraction) values, listed per item
Conditions: in 1-methoxy-2-propyl acetate, 328.15 K

# query: solubility (mole fraction) of entry O=P(NCc1cccc(CNP(=O)(Oc2ccccc2)Oc2ccccc2)c1)(Oc1ccccc1)Oc1ccccc1 0.0079

Could you do the same for O=P(Oc1ccccc1)(Oc1ccccc1)N1CCN(P(=O)(Oc2ccccc2)Oc2ccccc2)CC1 , please? 0.00141

====

// reported solubility (mole fraction) per item
Details: in 1-propoxy-2-propanol, 313.15 K
Lab note: jot down the number only; don't add units.

sample_smiles=O=P(Oc1ccccc1)(Oc1ccccc1)N1CCN(P(=O)(Oc2ccccc2)Oc2ccccc2)CC1 property_label="solubility (mole fraction)" obs_value=0.000893

# evaluate next
Given O=P(NCc1cccc(CNP(=O)(Oc2ccccc2)Oc2ccccc2)c1)(Oc1ccccc1)Oc1ccccc1 , state its recorded solubility (mole fraction). 0.00121

====

Conditions: in 2-(2-methoxypropoxy) propanol, 323.15 K
property label: solubility (mole fraction)
Could you respond with only the numeric value?

sample_smiles=O=P(NCc1cccc(CNP(=O)(Oc2ccccc2)Oc2ccccc2)c1)(Oc1ccccc1)Oc1ccccc1 obs_value=0.00829

Now let's try a different one.
Any idea what its solubility (mole fraction) is? The molecule is O=P(Oc1ccccc1)(Oc1ccccc1)N1CCN(P(=O)(Oc2ccccc2)Oc2ccccc2)CC1 0.0029

====

Conditions: in 1-propoxy-2-propanol, 343.15 K
property label: solubility (mole fraction)
Number only, no unit.

sample_smiles=O=P(NCc1cccc(CNP(=O)(Oc2ccccc2)Oc2ccccc2)c1)(Oc1ccccc1)Oc1ccccc1 obs_value=0.00374

Now look at this one.
Report solubility (mole fraction) for O=P(Oc1ccccc1)(Oc1ccccc1)N1CCN(P(=O)(Oc2ccccc2)Oc2ccccc2)CC1 please. 0.00339

====

Conditions: in 1-propoxy-2-propanol, 303.15 K
// reported solubility (mole fraction) per item
Give the figure by itself; no unit, no explanation.

sample_smiles=O=P(NCc1cccc(CNP(=O)(Oc2ccccc2)Oc2ccccc2)c1)(Oc1ccccc1)Oc1ccccc1 obs_value=0.000766

Consider the additional compound presented here.
Return reported solubility (mole fraction); argument: O=P(Oc1ccccc1)(Oc1ccccc1)N1CCN(P(=O)(Oc2ccccc2)Oc2ccccc2)CC1 0.000564

====

Conditions: in 1-methoxy-2-propyl acetate, 313.15 K
Catalogue of molecules with associated solubility (mole fraction)

Query: solubility (mole fraction); subject: O=P(Oc1ccccc1)(Oc1ccccc1)N1CCN(P(=O)(Oc2ccccc2)Oc2ccccc2)CC1 0.000762

Follow-up entry: O=P(NCc1cccc(CNP(=O)(Oc2ccccc2)Oc2ccccc2)c1)(Oc1ccccc1)Oc1ccccc1 0.00547

====

Settings: in 1-methoxy-2-propanol, 308.15 K
Recorded solubility (mole fraction), one value per entry.
Output: the number by itself.

sample_smiles=O=P(NCc1cccc(CNP(=O)(Oc2ccccc2)Oc2ccccc2)c1)(Oc1ccccc1)Oc1ccccc1 obs_value=0.00114

Field request: solubility (mole fraction) | item: O=P(Oc1ccccc1)(Oc1ccccc1)N1CCN(P(=O)(Oc2ccccc2)Oc2ccccc2)CC1 0.000782

====

Conditions: in 2-(2-methoxypropoxy) propanol, 328.15 K
property label: solubility (mole fraction)
The response must contain the number and no unit.

sample_smiles=O=P(Oc1ccccc1)(Oc1ccccc1)N1CCN(P(=O)(Oc2ccccc2)Oc2ccccc2)CC1 obs_value=0.00344

Consider the compound O=P(NCc1cccc(CNP(=O)(Oc2ccccc2)Oc2ccccc2)c1)(Oc1ccccc1)Oc1ccccc1 and give its measured solubility (mole fraction). 0.00995
